Just for reference, patent US8343934B2 is where these values come from.

Target: ATX (Homo sapiens, UniProt Q13822)
Construct: conditioned serum-free medium (CCM) from MDA-MB-435 cells as the source of ATX; endogenous in cells; host or cells: MDA-MB-435 cells (about 10x concentrated conditioned serum-free medium)
Experiment: ATX inhibition assay (FS-3 substrate)
Assay type: biochemical
Settings: Calculated IC50 data for the 30 active compounds; FS-3 substrate
Provide the recorded pIC50 for the entries that follow.
Quick note: pIC50 values are minus log10 of concentrations in mol/L.

Which pIC50 value is on record for Cc1cccc(N=Nc2c(S(=O)(=O)O)cc3cc(NC(=O)Nc4ccc5c(O)c(N=Nc6ccc7cc(S(=O)(=O)O)ccc7c6)c(S(=O)(=O)O)cc5c4)ccc3c2O)c1.[Na+] [compound 65574] ?
4.92

Look up pIC50 for this compound: O=C(O)c1ccc(C(=O)NCCCN(CCCCN(CCCNC(=O)c2ccc(C(=O)O)c(O)c2O)C(=O)c2ccc(C(=O)O)c(O)c2O)C(=O)c2ccc(C(=O)O)c(O)c2O)c(O)c1O.[Na+] [compound 338310]
5.10

Fill blank: measured pIC50 of the compound Cc1ccccc1N=Nc1c(S(=O)(=O)[O-])cc2cc(NC(=O)Nc3ccc4c(O)c(N=Nc5ccc6cc(S(=O)(=O)[O-])ccc6c5)c(S(=O)(=O)[O-])cc4c3)ccc2c1O.[Na+].[Na+].[Na+] [compound 58057] is ____.
4.93

Given the entry Nc1ccc2cc(S(=O)(=O)[O-])c(N=Nc3ccc(-c4ccc(N=Nc5c(S(=O)(=O)[O-])cc6cc(S(=O)(=O)[O-])c(N=Nc7cccc([N+](=O)[O-])c7)c(N)c6c5O)cc4)cc3)c(O)c2c1.[Na+].[Na+].[Na+] [compound 79744] , report its measured pIC50.
4.94

Look up pIC50 for this compound: CN(C)C1C(=O)C(C(=O)NCNc2cccc(C(=O)O)c2C(=O)O)=C(O)C2(O)C(=O)C3=C(O)c4c(O)cccc4[C@](C)(O)[C@@H]3C[C@H]12 (some centres unmarked) [compound 43891]
4.86

Tell me the measured pIC50 of Cc1cc(N)ccc1N=Nc1ccc(-c2ccc(N=Nc3c(S(=O)(=O)O)cc4cc(S(=O)(=O)O)c(N=Nc5ccc([N+](=O)[O-])cc5)c(N)c4c3O)cc2)cc1.[Na+] [compound 65851] , please.
5.02

I have this compound here, COc1ccccc1N=Nc1c(S(=O)(=O)O)cc2cc(NC(=O)Nc3ccc4c(O)c(N=Nc5c(N)ccc6cc(S(=O)(=O)O)ccc56)c(S(=O)(=O)O)cc4c3)ccc2c1O [compound 45622] , and I need its recorded pIC50.
4.94

Which pIC50 is listed for Nc1c(S(=O)(=O)[O-])cc2cc(S(=O)(=O)[O-])ccc2c1N=Nc1ccc(-c2ccc(N=Nc3c(N)c(S(=O)(=O)[O-])cc4cc(S(=O)(=O)[O-])ccc34)c(S(=O)(=O)[O-])c2)cc1.[Na+].[Na+].[Na+].[Na+].[Na+] [compound 11243] ?
4.90
